Task for the reader: assign each of the following molecules its reported Residual turnover.
# System: HPPD polypeptides
# experiment-notes: coupled HPPD activity assay: turnover and residual turnover in crude extracts
# Format: biochemical, Pseudomonas fluorescens
# assay-context: presence of 100 μM Cmpd. 1; high substrate concentration; changes in absorbance (OD) at 320 nm
One number for each entry.

{"columns": ["molecule", "Residual turnover"],
 "data": [
  ["25 (protein, mutant HPPD polypeptide) MADLYENPMGLMGFEFIEFASPTPGTLEPIFEIMGFTKVATHRSKNVHLYRQGEINLILNNEPNSIASYFAAEHGPSVCGMAFRVKDSQKAYNRALELGAQPIHIDTGPMELNLPAIKGIGGAPLYLIDRFGEGSSIYDIDFVYLEGVERNPVGAGLKVIDHLTHNVYRGRMVYWANFYEKLFNFREARYFDIKGEYTGLTSKAMSAPDGMIRIPLNEESSKGAGQIEEFLMQFNGEGIQHVAFLTDDLVKTWDALKKIGMRFMTAPGDTYYEMLEGRLPDHGEPVDQLQARGILLDGSSVEGDKRLLLQIFSETLMGPVFFEFIQRKGDDGFGPHSFKVLFESIERDQVRRGVLTAD", 0.083]
]}

Output measured Residual turnover for this item: 65 (protein, mutant HPPD polypeptide) MADLYENPMGLMGFEFIEFASPTPGTLEPIFEIMGFTKVATHRSKNVHLYRQGEINLILNNEPNSIASYFAAEHGPSVCGMAFRVKDSQKAYNRALELGAQPIHIDTGPMELNLPAIKGIGGAPLYLIDRFGEGSSIYDIDFVYLEGVERNPVGAGLKVIDHLTHNVYRGRMVYWANFYEKLFNFREARYFDIKGEYTGLTSKAMSAPDGMIRIPLNEESSKGAGQIEEFLMQFNGEGIQHVAFLTDDLVKTWDALKKIGMRFMTAPADSYYEMLEGRLPDHGEPVDQLQARGILLDGSSVEGDKRLLLQIFSERLMGPVFFEFIQRKGDDGFGPHSFKVLFESMERDQVRRGVLTAD
0.177

Recorded values, source patent US11180770B2.
